// cross-source set; read-out = IC50; system = human PDE10A2 (Homo sapiens (Human))
Endpoint label: IC50 (nM)

Illustrative cases are given below, each with its answer.
Compound	IC50 (nM)
COc1cc2nc(C)c(C)n2nc1C#Cc1nc(N2CCCC2)nn1C	2.7
O=C(NC1CCC1)c1ccncc1NC(=O)c1nc(C2CC2)ccc1Nc1cncnc1	1.1
Cn1c(COc2ccc(-c3oncc3-c3ccncc3)cc2)nc2ccccc21	4.94
CC(=O)Nc1ccc(N[C@H]2C[C@H](N3C(=O)C(C)(C)c4cccnc43)C2)nc1	8.42
Cc1cc(F)cc2ccc(CCc3nc4c(C)ncc(C)n4n3)nc12	2000

(P) C#CCn1cc(-c2cccs2)nc1CCc1nc2c(OC)ccc(C)n2n1
(Q) COc1ccc(C)n2nc(CCc3nc(-c4cncs4)cn3C)nc12
Response body: label of entry with the larger IC50; valid values P , Q . Write the label of whichever entry you select.
Q
(Q: 9.2 nM, P: 4.1 nM)

* * *

pIC50: −log10 of the molar value.
A compilation of pIC50 values for human PDE10A2 (Homo sapiens (Human), UniProt Q9Y233) from the published literature.
Endpoint label: pIC50

Compound	Test system	pIC50
CN(C(=O)c1nn(C)cc1NC(=O)c1nc(C2CC2)ccc1Nc1cncnc1)C1CC1	human PDE10A2 (Homo sapiens (Human), UniProt Q9Y233)	7.97

(P) Cc1c(C(F)(F)F)nc2ccc(OCc3nc(-c4ccccc4)cn3C)nn12
(Q) Cn1ncc(C(=O)N2CCC2)c1C(=O)Nc1ccn2cc(-c3cccc(Cl)c3)nc2n1
Please let me know which one, P or Q , has a lower measured pIC50 value. Mark your answer with the label of the selected entry.
P
(P: 7.46, Q: 8.32)

(I) COCCN(C)C(=O)c1cnn(C)c1C(=O)Nc1ccn2cc(-c3cccc(F)c3)nc2n1
(II) CNC(=O)c1c(NC(=O)c2nc(C3CC3)cnc2Nc2cncnc2)cnn1CC1CCO1 (stereo not drawn)
Between item I and item II , which reported pIC50 is smaller? // caller expects the label of the chosen entry
I

(I) CC1CCCCC1c1nnc2c(N)ncnn12 (single isomer, unassigned)
(II) Cc1ncc(C)n2nc(CCc3nc(N4CCCC4)nn3C)nc12
Lower value of pIC50 belongs to which: I or II ? Identify your selection by its label.
I
(I: 5.74, II: 8.24)

* * *

pIC50: −log10 of the molar value.
What follows is literature data on pIC50 for human PDE10A2 (Homo sapiens (Human)).
Endpoint label: pIC50

These solved cases illustrate the format of a correct answer.
Smiles data	Data value
Cc1ncc(C)n2nc(C#Cc3nc(N4CCCC4=O)cn3C)nc12	7.54
Cc1cc(C)n2cc(CCc3nc(-c4cccs4)cn3[C@@H](C)CO)nc2n1	8.06
CCn1ncc(NC(=O)c2nc(C3CC3)cnc2Nc2cncnc2)c1C(=O)NCC(C)C	8.42
Cc1ncc(C)n2nc(CCc3c[nH]c(-c4nccs4)n3)nc12	9.20
Cc1cn2nc(C)c(C)c2nc1CCc1nc(N2CCCC2)nn1C	7.12
Cc1ccc2nc(C)c3nnc(-c4cc(C5(O)CCC5)ccc4C)n3c2n1	5.64

(A) Cc1ccc(CC(C)(C)O)cc1-c1nnc2c(C)nc3ccc(C4CC4)nc3n12
(B) Cc1c(-c2ccc(-c3ccccc3F)cc2)nc2ccc(F)cc2c1CO
Between item A and item B , which reported pIC50 is smaller? Please reply using the label of the selected record.
A

(A) CCN(C)C(=O)c1[nH]nnc1C(=O)Nc1ccn2cc(-c3ccccc3)nc2n1
(B) CNC(=O)c1c(F)cccc1NC(=O)c1nc(C2CC2)cnc1Nc1cncnc1
(C) c1cnc2c(c1)nc(C1CC1)n2[C@H]1C[C@H](Nc2nc3ncccc3s2)C1
Rank by pIC50 (largest to smallest). Output spec: a listing of the labels in the requested order.
C, B, A
(C: 7.96, B: 7.16, A: 6.60)

(1) Cc1nc2cccnc2n2c(-c3cc(OCC4(O)CCC4)ccc3Cl)nnc12
(2) Cc1cnc(CNC(=O)c2cnn(C)c2C(=O)Nc2ccn3cc(-c4ccccc4)nc3n2)s1
Lab log: flag the item ( 1 or 2 ) with the smaller pIC50 figure. When you have decided, please share the label of that item.
1
(1: 5.42, 2: 7.75)

* * *

Compiled from multiple publications: IC50 readings for human PDE10A2 (Homo sapiens (Human)).
Endpoint label: IC50 (nM)

Past entries and their recorded results:
Compound	Unit annotation	IC50
CNC(=O)c1cc(C(C)C)ccc1NC(=O)c1nc(C2CC2)cnc1Nc1cncnc1	nM	1.3
CC(NC(=O)c1cnn(C)c1C(=O)Nc1ccn2cc(-c3ccccc3)nc2n1)c1cccnc1 (stereo not shown)	nM	148
c1ccc2nc(N[C@H]3C[C@H](n4c(C5CC5)nc5cncnc54)C3)ncc2c1	nM	7.94

(A) Cn1cc(NC(=O)c2nc(C3CC3)ccc2Nc2cncnc2)c(C(=O)NC2CCCCC2)n1
(B) Cc1ncc(C)n2nc(CCc3nc(N4CCCC4=O)cn3C3CC3)nc12
Select one: A or B . Criterion: greater recorded IC50. Please identify the chosen entry by its label.
B
(B: 27 nM, A: 6 nM)

(a) COc1cccn2nc(CCc3nc(-c4cccs4)cn3C)nc12
(b) O=C(NC1(c2ccc(OC(F)F)c(F)c2)CCOCC1)c1cnn2cc(C3CC3)cnc12
(c) Cc1oc(C2CC2)nc1CNC(=O)c1cnn(C)c1C(=O)Nc1ccn2cc(-c3ccccc3)nc2n1
hey, can you rank those compounds up there by IC50? biggest number first please Arrange the labels as the request states and list them.
b, c, a

(P) Cn1cc(NC(=O)c2nc(C3CC3)ccc2Nc2cncnc2)c(C(=O)N2CCC(O)C2)n1 (stereo not shown)
(Q) Cc1ccc(C)n2nc(CCc3c[nH]c(-c4cccs4)n3)nc12
(R) Cc1ccc(N[C@H]2CC[C@H](N3C(=O)C(C)(C)c4nccnc43)CC2)nc1
(S) CCO[C@@H](C(=O)c1ccc(-c2cc(OC)c(Cl)c(OC)c2)o1)c1ccc(-c2nnc(C)s2)cc1
(T) Cc1cc(C)n2cc(/C=C/c3nc(-c4ccoc4)cn3C)nc2n1
Rank order required: IC50, descending. Please list the labels in the order you were asked to rank them.
T, P, S, R, Q
(T: 140 nM, P: 27.4 nM, S: 5.8 nM, R: 1.54 nM, Q: 0.34 nM)

* * *

The compounds below each have a reported IC50 tested on human PDE10A2 (Homo sapiens (Human), UniProt Q9Y233); the values come from various publications.
Endpoint label: IC50 (nM)

Compound	Endpoint label	Data value
O=C(Nc1cnccc1C(=O)N1CC(F)(F)C1)c1nc(C2CC2)ccc1Nc1cncnc1	IC50	29.6
CNC(=O)c1cc(CCc2nc(N3CCCC3=O)cn2-c2ccccc2)nn2c(C)c(C(F)(F)F)nc12	IC50	2.9

(A) CCn1ncc(Cl)c1C(=O)Nc1ccn2cc(-c3ccccc3)nc2n1
(B) Cc1c(C(F)(F)F)nc2ccc(C#Cc3nc(N4CCCC4=O)cn3-c3ccccc3)nn12
// compare measured IC50 between A and B ; output the lower one Output the label that corresponds to your choice.
B

* * *

The following molecules were reported with IC50 values on human PDE10A2 (Homo sapiens (Human)) in different studies.

Consider the following illustrative entries.
Molecule	Data value
Cc1cnc2c(C(=O)NC3(c4ccc(Cl)cc4F)CCOC3)cnn2c1 (racemic)	> 10000 nM
O=C1c2c(N3CCOCC3)ccc(F)c2CN1CCc1ccc2ccccc2n1	< 100 nM
Cc1ncc(C)n2nc(CCc3nc(N4CCC[C@@H]4C(F)(F)F)nn3C)nc12	34.2 nM
COc1cncc(-c2cccc3c2CN(CCc2ccc4ccccc4n2)C3=O)n1	200 to 500 nM
C[C@@H]1CN(c2nc3cc(NC(=O)c4c(-c5nc(C(F)F)c(Cl)s5)cnn4C)ccn3n2)C[C@H](C)O1	5 to 100 nM

Any idea what its IC50 is? The molecule is Cc1ccnc(-c2cnn(C)c2C(=O)NC2CCn3cc(-c4cccc(F)c4)nc3C2)n1 (stereo not drawn)
5 to 100 nM

* * *

// cross-source set; read-out = IC50; system = human PDE10A2 (Homo sapiens (Human), UniProt Q9Y233)

Compound	Data value
COc1cn(-c2cnccn2)nc(-c2ccnn2-c2ccccc2)c1=O	≤ 0.01 µM

Can you share its IC50? I mean this compound: Cc1ccsc1-c1ccnc2c1C(=O)N(CCc1ccc3ccccc3n1)C2
0.1 to 0.2 µM

Same read-out for Cc1cncc(-c2cnn(C)c2C(=O)Nc2ccn3nc(N4CC[C@H](F)C4)nc3c2)n1 ?
< 0.005 µM

Subsequent entry: O=C1c2c(-c3cncnc3)ccnc2CN1CCc1nc2ccccc2s1
0.1 to 0.2 µM

Could you do the same for COc1nc2cccnc2n1C1CCC(Nc2nc3ccccc3[nH]2)CC1 (stereo not shown) , please?
0.00104 µM

Okay, and Cc1ccc2c(c1)nc(CCN1Cc3nccc(-c4ccncc4)c3C1=O)n2C ?
< 0.1 µM

Also Cc1ncc(C)c(-c2cnn(C)c2C(=O)Nc2cc3nc(-c4ccccc4)nn3cc2F)n1 , if possible.
< 0.005 µM
